Tested on: Falciformispora senegalensis CBS197.79
Assay: growth relative to untreated control; higher = less inhibition, active = 20 or less
Conditions: 100 µM
So basically: growth at 90% or higher? That is Met. Lower than 90%? That is Not met.

As a guide, the following entries are already answered.
| compoundSmiles | assignedLabel |
| --- | --- |
| COc1ccc(CCN(Cc2cccs2)C(=O)c2cc3sccc3n2C)cc1OC | Met |
| Cc1nc(NC2(c3ccc(C#N)cc3)CC2)nc(NCC2COC2)c1C | Met |
| O[C@@H](CNC[C@H](O)[C@H]1CCc2cc(F)ccc2O1)[C@@H]1CCc2cc(F)ccc2O1 | Not met |
| O=C(OI(OC(=O)C(F)(F)F)c1ccccc1)C(F)(F)F | Met |
| Cc1c(-c2ccc(-c3ccccc3F)cc2)nc2ccc(F)cc2c1C(=O)O | Met |
| CC(C)OC(=O)[C@H](C)N[P@](=O)(OC[C@H]1O[C@@H](n2ccc(=O)[nH]c2=O)[C@](C)(F)[C@@H]1O)Oc1ccccc1 | Met |

(Q) # check: growth of CNCc1[cH-]ccc1CNc1ccnc2cc(Cl)ccc12.[Fe+2].c1cc[cH-]c1 is greater than or equal to 90%
(A) Not met

(Q) # check: growth of CCN1CCC(c2cc(C)c3nc(-c4cc5c(C)nc(C)cn5n4)cc(=O)n3c2)CC1 is greater than or equal to 90%
(A) Met

(Q) # check: growth of COc1cc2c3cc1Oc1c(OC)c(OC)cc4c1[C@@H](Cc1ccc(O)c(c1)Oc1ccc(cc1)C[C@@H]3N(C)CC2)N(C)CC4 is greater than or equal to 90%
(A) Not met

(Q) # check: growth of CCN(CC)Cc1ccccc1CNc1ccnc2ccsc12 is greater than or equal to 90%
(A) Not met

(Q) # check: growth of CC(C)(C)NCc1cc(Nc2ccnc3cc(Cl)ccc23)c2c(c1O)CCCC2 is greater than or equal to 90%
(A) Met

(Q) # check: growth of COc1cc(NC(=O)Nc2cccc(CNC(=O)O[C@H]3CCOC3)c2)ccc1-c1cnco1 is greater than or equal to 90%
(A) Met

(Q) # check: growth of N#Cc1ccc(-c2ccc3nc(Oc4ccc(C(F)(F)F)cn4)cn3c2)nc1 is greater than or equal to 90%
(A) Met

(Q) # check: growth of Cc1cc(Nc2cn3cc(-c4cnn(C(F)F)c4)ccc3n2)nc(C)n1 is greater than or equal to 90%
(A) Not met

(Q) # check: growth of Cc1nc(NCc2ccc(F)cc2)nc(NCC(C)(C)C)c1C is greater than or equal to 90%
(A) Not met
